Where do the numbers come from? From patent US20200247855A1.

Biological target: T1, CCL4_HUMAN (Homo sapiens, UniProt P13236)
T1 sequence (P13236 24-92): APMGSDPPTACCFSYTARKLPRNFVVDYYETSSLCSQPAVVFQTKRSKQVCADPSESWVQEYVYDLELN
Test: Biolayer interferometry (BLI) binding
Some molecules, each annotated with its measured pKd.
// pKd: -log10(molar conc.)

P974_AMBCA: tick CKBP, Amblyomma cajennense; ACA-01 stated identical (protein, Amblyomma cajennense, tick CKBP, Amblyomma cajennense; ACA-01 stated identical) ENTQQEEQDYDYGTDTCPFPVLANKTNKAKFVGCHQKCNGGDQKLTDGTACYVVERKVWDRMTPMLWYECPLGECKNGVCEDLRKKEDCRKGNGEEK    7.52
P991_AMBCA: tick CKBP, Amblyomma cajennense (protein, Amblyomma cajennense) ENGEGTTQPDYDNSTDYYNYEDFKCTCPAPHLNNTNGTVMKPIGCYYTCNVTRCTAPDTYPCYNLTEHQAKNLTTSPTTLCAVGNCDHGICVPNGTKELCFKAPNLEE    8.24

Turning now to a further molecule:
Report measured pKd; entry is P546_AMBCA: tick CKBP, Amblyomma cajennense (protein, Amblyomma cajennense) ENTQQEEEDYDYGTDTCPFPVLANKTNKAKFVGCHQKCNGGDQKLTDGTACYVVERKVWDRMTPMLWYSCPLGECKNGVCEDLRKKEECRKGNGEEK 7.57
